System: ivy-leaved morning glory (Ipomoea hederacea)
Assay: Test G Pre-Emergence Protocol
Type: in vivo
Conditions: Ipomoea, pre-emergence, 312 h, 250 g ai/ha, evaluated after 13 days, read-out: Morningglory, Ivy-leaved damage rating (100=total damage to plant; 0=no damage to plant)
Would you mind telling me the reported pest or weed control at 250 g/ha of each entry?
# number only, unit % dropped from output

[in] Please report the recorded pest or weed control at 250 g/ha for CC(C)S(=O)(=O)c1ccccc1NC(=O)[C@H]1C(=O)N(C)C[C@@H]1c1ccc(C(F)(F)F)cc1 (racemic) [Compound 1665] .
[out] 20

[in] Please report the recorded pest or weed control at 250 g/ha for CN1C[C@H](c2ccc3c(c2)CCO3)[C@@H](C(=O)Nc2cccc(F)c2F)C1=O (racemic) [Compound 1499] .
[out] 100

[in] Please report the recorded pest or weed control at 250 g/ha for CN1C[C@@H](c2ccc(C(F)(F)F)cc2)[C@H](C(=O)Nc2ccn(C)n2)C1=O (racemic) [Compound 1615] .
[out] 0

[in] Please report the recorded pest or weed control at 250 g/ha for COC(=O)c1cc([C@H]2CN(C)C(=O)[C@@H]2C(=O)Nc2cccc(F)c2F)ccc1C (racemic) [Compound 1683] .
[out] 60

[in] Please report the recorded pest or weed control at 250 g/ha for CN1C[C@@H](c2ccc(C(F)(F)F)cc2)[C@H](C(=O)Nc2nccnc2Cl)C1=O (racemic) [Compound 1552] .
[out] 0

[in] Please report the recorded pest or weed control at 250 g/ha for Cc1ccc(NC(=O)[C@H]2C(=O)N(C)C[C@@H]2c2ccc(C(F)(F)F)cc2)nc1 (racemic) [Compound 1484] .
[out] 0

[in] Please report the recorded pest or weed control at 250 g/ha for CN1C[C@@H](c2ccc(C(F)(F)F)cc2)[C@H](C(=O)Nc2ccc(F)c(Cl)c2F)C1=O (racemic) [Compound 1628] .
[out] 20

====

System: giant foxtail (Setaria faberii)
Assay: Test A postemergence
Format: in vivo
Details: Setaria faberi, post-emergence, 240 h, 500 g ai/ha, postemergence; visual injury, 0 to 100 scale (0 no effect, 100 complete control), approx. 10 d; read-out: Plant response rating, Foxtail, Giant
From the text: […]
Would you mind telling me the reported pest or weed control at 500 g/ha of each entry?
# number only, unit % dropped from output

[in] Please report the recorded pest or weed control at 500 g/ha for "CC(C)COc1cccc([C@H]2CN(C)C(=O)[C@@H]2C(=O)Nc2ccccc2F)c1" .
[out] 80

[in] Please report the recorded pest or weed control at 500 g/ha for "Cc1ccc([C@H]2CN(C)C(=O)[C@@H]2C(=O)Nc2cccc(F)c2F)cc1C" .
[out] 90

[in] Please report the recorded pest or weed control at 500 g/ha for O=C1NCC(c2ccccc2OC(F)(F)C(F)F)C1C(=O)Nc1cccc(F)c1F (stereo not shown) .
[out] 0

[in] Please report the recorded pest or weed control at 500 g/ha for CN1CC(c2ccccc2OC(F)(F)C(F)F)C(C(=O)Nc2ccccc2F)C1=O (stereo not shown) .
[out] 0

====

Would you mind telling me the reported plant injury at 500 g/ha of each entry?
Tested on: wheat (Triticum aestivum)
Assay: Test A postemergence
Type: in vivo
Settings: Triticum aestivum, post-emergence, 240 h, Postemergence, 500 g ai/ha; visual injury, 0 to 100 scale (0 no effect, 100 complete control), approx. 10 d; read-out: Plant response rating, Wheat
# number only, unit % dropped from output

[in] What value of plant injury at 500 g/ha on wheat (Triticum aestivum) does "CN1C[C@H](c2cccc(C(C)(F)F)c2)[C@@H](C(=O)Nc2ccc(F)cc2F)C1=O" have?
[out] 60

[in] What value of plant injury at 500 g/ha on wheat (Triticum aestivum) does CO[C@]1(C(=O)Nc2cccc(F)c2F)C(=O)N(C)C[C@@H]1c1ccc(C(F)(F)F)cc1 (racemic) have?
[out] 0

[in] What value of plant injury at 500 g/ha on wheat (Triticum aestivum) does "Cc1c(F)ccc([C@H]2CNC(=O)[C@@H]2C(=O)Nc2ccccc2F)c1F" have?
[out] 0

[in] What value of plant injury at 500 g/ha on wheat (Triticum aestivum) does "CN1C[C@H](c2ccc(C(F)(F)F)nc2)[C@@H](C(=O)Nc2cccc(F)c2F)C1=O" have?
[out] 90

[in] What value of plant injury at 500 g/ha on wheat (Triticum aestivum) does O=C1NCC(c2ccccc2)C1C(=O)Nc1ccccc1 (stereo not drawn) have?
[out] 0

[in] What value of plant injury at 500 g/ha on wheat (Triticum aestivum) does C=CCOc1cccc(C2CN(C)C(=O)C2C(=O)Nc2ccccc2F)c1 (stereo not drawn) have?
[out] 20

[in] What value of plant injury at 500 g/ha on wheat (Triticum aestivum) does O=C1NCC(c2ccccc2)C1C(=O)Nc1ccccc1Oc1ccccc1 (stereo not drawn) have?
[out] 0

[in] What value of plant injury at 500 g/ha on wheat (Triticum aestivum) does "COc1cc([C@H]2CN(C)C(=O)[C@@H]2C(=O)Nc2ccccc2F)ccc1F" have?
[out] 20

[in] What value of plant injury at 500 g/ha on wheat (Triticum aestivum) does "COc1cc([C@H]2CN(C)C(=O)[C@@H]2C(=O)Nc2cccc(F)c2C)ccc1F" have?
[out] 50

====

System: corn (Zea mays)
Assay: Test A postemergence
Format: in vivo
Conditions: Zea mays, post-emergence, 240 h, 125 g ai/ha, postemergence; visual injury on 0 to 100 scale (0 no effect, 100 complete control), approx. 10 d; read-out: Corn plant response rating
OUTCOME MEASURE: plant injury at 125 g/ha (%)
# number only, unit % dropped from output

[in] Please report the recorded plant injury at 125 g/ha for "CN1C[C@H](c2csc3c2CCC3)[C@@H](C(=O)Nc2ccccc2S(C)(=O)=O)C1=O" .
[out] 30

[in] Please report the recorded plant injury at 125 g/ha for "C=C(C)c1cccc([C@H]2CN(C)C(=O)[C@@H]2C(=O)Nc2ccc(F)c(F)c2F)c1" .
[out] 0

[in] Please report the recorded plant injury at 125 g/ha for "CN1C[C@H](c2csc3ccccc23)[C@@H](C(=O)Nc2cccc(F)c2F)C1=O" .
[out] 40

[in] Please report the recorded plant injury at 125 g/ha for Cc1ccc([C@H]2CNC(=O)[C@]2(Br)C(=O)Nc2cccc(F)c2F)cc1F (racemic) .
[out] 20

[in] Please report the recorded plant injury at 125 g/ha for "Cc1cc([C@H]2CN(C)C(=O)[C@@H]2C(=O)Nc2ccccc2C(F)(F)F)ccc1Br" .
[out] 0

[in] Please report the recorded plant injury at 125 g/ha for "CN1C[C@H](c2cc(C(F)F)cs2)[C@@H](C(=O)Nc2cccc(F)c2F)C1=O" .
[out] 50

[in] Please report the recorded plant injury at 125 g/ha for "CN1C[C@H](c2csc3c2CCCC3)[C@@H](C(=O)Nc2ccccc2S(C)(=O)=O)C1=O" .
[out] 0

[in] Please report the recorded plant injury at 125 g/ha for CN1C[C@H](c2ccc(C(F)(F)F)cc2)[C@@](F)(C(=O)Nc2cccc(F)c2F)C1=O (racemic) .
[out] 60

[in] Please report the recorded plant injury at 125 g/ha for "CN1C[C@H](c2cscn2)[C@@H](C(=O)Nc2cccc(F)c2F)C1=O" .
[out] 0

====

Tested on: Kochia (Kochia scoparia)
Assay: Test A preemergence
Type: in vivo
Conditions: 500 g ai/ha, preemergence; 0 to 100 scale, 0 = no effect, 100 = complete control
OUTCOME MEASURE: Plant response rating, Kochia
Lab note: jot the number down without any unit.

[in] Please report the recorded Plant response rating, Kochia for Cc1cccc(C2CN(C)C(=O)C2C(=O)Nc2ccccc2S(C)(=O)=O)c1 (stereo not drawn) .
[out] 70

[in] Please report the recorded Plant response rating, Kochia for O=C(Nc1ccccc1F)C1C(=O)N(CC2CC2)CC1c1cccc(C(F)(F)F)c1 (stereo not drawn) .
[out] 0

[in] Please report the recorded Plant response rating, Kochia for O=C1NCC(c2ccc(F)cc2F)C1C(=O)Nc1ccccc1F (stereo not drawn) .
[out] 20

[in] Please report the recorded Plant response rating, Kochia for C=CCOc1cccc(C2CNC(=O)C2(CC=C)C(=O)Nc2cccc(F)c2F)c1 (stereo not drawn) .
[out] 0

[in] Please report the recorded Plant response rating, Kochia for CN1CC(c2cccc(F)c2)C(C(=O)Nc2ccc(F)cc2F)C1=O (stereo not drawn) .
[out] 50

[in] Please report the recorded Plant response rating, Kochia for COC(=O)c1ccccc1NC(=O)C1C(=O)NCC1c1cccc(C(F)(F)F)c1 (racemic) .
[out] 0

[in] Please report the recorded Plant response rating, Kochia for CN1CC(c2cccc(C(F)(F)F)c2)C(C(=O)Nc2ccccc2C(F)(F)F)C1=O (stereo not drawn) .
[out] 20

[in] Please report the recorded Plant response rating, Kochia for CN1CC(c2cc(F)cc(F)c2)C(C(=O)Nc2cccc3c2CCCC3)C1=O (stereo not drawn) .
[out] 0

[in] Please report the recorded Plant response rating, Kochia for O=C1NCC(c2cccc(OC(F)(F)C(F)F)c2)C1C(=O)Nc1ccc(F)c(F)c1F (racemic) .
[out] 40
